target.or.system: T1, APC3323-AA
T1 chain: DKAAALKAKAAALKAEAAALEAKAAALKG
test.protocol: two-hybrid library CCmax;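 further: natural log of median RNA to DNA barcode read ratio; higher means stronger binding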
measurement.conditions: mean of both orientations
parameter: interaction score

>>> print(df.to_string())
                                     binder  observed
0  DKLAAIKAKLAANKAELAANEAKLAAEKG [APC1987-AA]     -2.07
1  DEAAALEAKNAALKAKNAALKAELAAEEG [APC2556-AA]     -1.82
2  DKLAAIKAKLAANKAKLAAIKAELAAEEG [APC1916-AA]     -1.94
3  DEAAALEAEAAALEAKNAALKAKLAAEKG [APC2257-AA]     -1.58
